test system: SR; assay: NCI-60 one-dose screen (leukemia); format: cell-based, human; conditions: 10 µM single dose, 48 h
Entries whose GP (growth percentage) is below -10% take t; entries at or above -10% take f.

COc1ccc(NC2=C(Cl)C(=O)c3nc(C)ccc3C2=O)cc1OC ... f

Req: Does the reported GP (growth percentage) of the following compound sit strictly below -10%? CCOc1ccc(NC2=C(Cl)C(=O)c3nc(C)ccc3C2=O)cc1
Resp: t

Req: Continue with COc1cc(NC2=C(Cl)C(=O)c3nc(C)ccc3C2=O)cc(OC)c1
Resp: f

Req: Continue with COc1ccccc1NC1=C(Cl)C(=O)c2nc(C)ccc2C1=O
Resp: t

Req: Continue with CCOc1ccccc1NC1=C(Cl)C(=O)c2nc(C)ccc2C1=O
Resp: t

* * *

Please respond with reported GP (growth percentage) for every item in the list.
test system: A549/ATCC; assay: NCI-60 one-dose screen (non-small cell lung cancer); format: cell-based, human; conditions: 10 µM single dose, 48 h
Numbers only, in %.

See these solved cases before continuing.
COc1ccc(NC2=C(Cl)C(=O)c3nc(C)ccc3C2=O)cc1OC ... 107.06
COc1ccccc1NC1=C(Cl)C(=O)c2nc(C)ccc2C1=O ... 101.36
COc1cc(NC2=C(Cl)C(=O)c3nc(C)ccc3C2=O)cc(OC)c1 ... 42.41
CCOc1ccc(NC2=C(Cl)C(=O)c3nc(C)ccc3C2=O)cc1 ... 46.18

Kindly consider the entry below.
Req: So what does the record say about GP (growth percentage) for CCOc1ccccc1NC1=C(Cl)C(=O)c2nc(C)ccc2C1=O ?
Resp: 59.11

* * *

Please respond with reported microsomal CLint at 0.5 µM for every item in the list.
test: In vitro metabolic stability; format: in vitro ADME; conditions: pH 7.4; Human liver microsomes
Give bare numbers, in µL/min/mg.

CCOc1ccccc1NC1=C(Cl)C(=O)c2nc(C)ccc2C1=O [AQQ2] ... 52

Kindly consider the entry below.
Req: So what does the record say about microsomal CLint at 0.5 µM for COc1ccccc1NC1=C(Cl)C(=O)c2nc(C)ccc2C1=O [AQQ1] ?
Resp: 39

* * *

A set of molecules tested on TK-10, with measured GI50:
Answers are plain numbers, in nM.

Parameter requested: GI50. Apply to each item below.
1. CCOc1ccc(NC2=C(Cl)C(=O)c3nc(C)ccc3C2=O)cc1 [AQQ3]
2. CCOc1ccccc1NC1=C(Cl)C(=O)c2nc(C)ccc2C1=O [AQQ2]
3. COc1ccccc1NC1=C(Cl)C(=O)c2nc(C)ccc2C1=O [AQQ1]
4. COc1cc(NC2=C(Cl)C(=O)c3nc(C)ccc3C2=O)cc(OC)c1 [AQQ5]

Resp:
1. 2300
2. 2250
3. 2340
4. 2320

* * *

Please respond with reported pIC50 for every item in the list.
system: HCT-116 cells; experiment: MTT assay; type: cell-based; details: Homo sapiens, 24 h, mean ± SEM
Structures can show the parent of a compound that is named as a salt.
Numbers only, as −log10 of the molar value.

See these solved cases before continuing.
COc1ccccc1NC1=C(Cl)C(=O)c2nc(C)ccc2C1=O [AQQ1] ... 5.23
COc1cccc2c1C(=O)c1c(O)c3c(c(O)c1C2=O)C[C@@](O)(C(=O)CO)C[C@@H]3O[C@H]1C[C@H](N)[C@H](O)[C@H](C)O1 [DOXO, Doxorubicin HCl, reference compound] ... 4.61

Kindly consider the entry below.
Req: So what does the record say about pIC50 for CCOc1ccccc1NC1=C(Cl)C(=O)c2nc(C)ccc2C1=O [AQQ2] ?
Resp: 5.04

* * *

Assay: In vivo bioavailability / pharmacokinetic study IV and PO
Parameters: species or system male Sprague-Dawley rats
Conditions: male, Sprague-Dawley, whole blood; rat; PO 5 mg/kg
Description: Using the validated Phoenix® WinNonlin® 8.3 NCA tool Version 8 or higher (Certara L.P.), USA, pharmacokinetic parameters were computed. As appropriate, Cmax, Tmax, and exposures (AUCinfinity and AUClast) were calculated. Furthermore, pharmacokinetic characteristics such as distribution volume (Vd), […] (CL), elimination half-life (T1/2), and parenteral route like (C0) were evaluated. […]
Measured Parameter: MRT last (h)
Give bare numbers, in h.

COc1ccccc1NC1=C(Cl)C(=O)c2nc(C)ccc2C1=O ... 7.47

Kindly consider the entry below.
Req: So what does the record say about MRT last for CCOc1ccccc1NC1=C(Cl)C(=O)c2nc(C)ccc2C1=O ?
Resp: 6.61

* * *

Please respond with reported C0 for every item in the list.
assay: In vivo bioavailability / pharmacokinetic study IV and PO; parameters: species or system male Sprague-Dawley rats; conditions: male, Sprague-Dawley, whole blood; rat; IV 1 mg/kg
Answers are plain numbers, in ng/mL.

COc1ccccc1NC1=C(Cl)C(=O)c2nc(C)ccc2C1=O [AQQ1] ... 90.8

Kindly consider the entry below.
Req: So what does the record say about C0 for CCOc1ccccc1NC1=C(Cl)C(=O)c2nc(C)ccc2C1=O [AQQ2] ?
Resp: 23.2

* * *

tested on: NCI/ADR-RES; experiment: NCI-60 five-dose assay (ovarian cancer); type: cell-based, human; conditions: Homo sapiens, 48 h, SRB, read-out: LC50 (the source's name)
Measured Parameter: CC50

CCOc1ccc(NC2=C(Cl)C(=O)c3nc(C)ccc3C2=O)cc1 [AQQ3] ... 9.93 µM
COc1ccccc1NC1=C(Cl)C(=O)c2nc(C)ccc2C1=O [AQQ1] ... 34.6 µM
COc1cc(NC2=C(Cl)C(=O)c3nc(C)ccc3C2=O)cc(OC)c1 [AQQ5] ... 21.7 µM

Kindly consider the entry below.
Req: So what does the record say about CC50 for CCOc1ccccc1NC1=C(Cl)C(=O)c2nc(C)ccc2C1=O [AQQ2] ?
Resp: > 100 µM

* * *

test system: SF-295; test: NCI-60 one-dose screen (CNS cancer); assay type: cell-based, human; conditions: 10 µM single dose, 48 h
Please respond with reported GP (growth percentage) for every item in the list.
One number for each entry, in %.

See these solved cases before continuing.
COc1ccc(NC2=C(Cl)C(=O)c3nc(C)ccc3C2=O)cc1OC ... 103.62
CCOc1ccccc1NC1=C(Cl)C(=O)c2nc(C)ccc2C1=O ... 90.72
COc1cc(NC2=C(Cl)C(=O)c3nc(C)ccc3C2=O)cc(OC)c1 ... 51.57
CCOc1ccc(NC2=C(Cl)C(=O)c3nc(C)ccc3C2=O)cc1 ... 51.05

Kindly consider the entry below.
Req: So what does the record say about GP (growth percentage) for COc1ccccc1NC1=C(Cl)C(=O)c2nc(C)ccc2C1=O ?
Resp: 96.61

* * *

system: MDA-MB-435; assay: NCI-60 one-dose screen (melanoma); type: cell-based, human; conditions: 10 µM single dose, 48 h
Please respond with reported GP (growth percentage) for every item in the list.
Numbers only, in %.

COc1cc(NC2=C(Cl)C(=O)c3nc(C)ccc3C2=O)cc(OC)c1 ... −87.43
CCOc1ccc(NC2=C(Cl)C(=O)c3nc(C)ccc3C2=O)cc1 ... −83.74
COc1ccccc1NC1=C(Cl)C(=O)c2nc(C)ccc2C1=O ... −85.96
CCOc1ccccc1NC1=C(Cl)C(=O)c2nc(C)ccc2C1=O ... −85.72

Req: So what does the record say about GP (growth percentage) for COc1ccc(NC2=C(Cl)C(=O)c3nc(C)ccc3C2=O)cc1OC ?
Resp: −67.16

* * *

tested on: BT-549; assay: NCI-60 five-dose assay (breast cancer); assay type: cell-based, human; conditions: 48 h, SRB
Please respond with reported TGI for every item in the list.
One number for each entry, in µM.

See these solved cases before continuing.
COc1cc(NC2=C(Cl)C(=O)c3nc(C)ccc3C2=O)cc(OC)c1 ... 3.40
CCOc1ccc(NC2=C(Cl)C(=O)c3nc(C)ccc3C2=O)cc1 ... 2.80
CCOc1ccccc1NC1=C(Cl)C(=O)c2nc(C)ccc2C1=O ... 2.88

Req: So what does the record say about TGI for COc1ccccc1NC1=C(Cl)C(=O)c2nc(C)ccc2C1=O ?
Resp: 3.27

* * *

A set of compounds tested on NCI-H522, with measured GI50:
Give bare numbers, in nM.

See these solved cases before continuing.
COc1cc(NC2=C(Cl)C(=O)c3nc(C)ccc3C2=O)cc(OC)c1 [AQQ5] ... 1560
CCOc1ccccc1NC1=C(Cl)C(=O)c2nc(C)ccc2C1=O [AQQ2] ... 1740
COc1ccccc1NC1=C(Cl)C(=O)c2nc(C)ccc2C1=O [AQQ1] ... 1810

Kindly consider the entry below.
Req: So what does the record say about GI50 for CCOc1ccc(NC2=C(Cl)C(=O)c3nc(C)ccc3C2=O)cc1 [AQQ3] ?
Resp: 1750

* * *

Please respond with reported GI50 for every item in the list.
test system: CCRF-CEM
Numbers only, in nM.

See these solved cases before continuing.
CCOc1ccc(NC2=C(Cl)C(=O)c3nc(C)ccc3C2=O)cc1 ... 2110
COc1cc(NC2=C(Cl)C(=O)c3nc(C)ccc3C2=O)cc(OC)c1 ... 2230
CCOc1ccccc1NC1=C(Cl)C(=O)c2nc(C)ccc2C1=O ... 1410

Kindly consider the entry below.
Req: So what does the record say about GI50 for COc1ccccc1NC1=C(Cl)C(=O)c2nc(C)ccc2C1=O ?
Resp: 1940
